FYI, the data here is from paper PMC3431846.

target_or_test_system: Acetylcholinesterase from Electrophorus electricus (electric eel) (Electrophorus electricus, UniProt O42275)
Sequence (O42275 24-633): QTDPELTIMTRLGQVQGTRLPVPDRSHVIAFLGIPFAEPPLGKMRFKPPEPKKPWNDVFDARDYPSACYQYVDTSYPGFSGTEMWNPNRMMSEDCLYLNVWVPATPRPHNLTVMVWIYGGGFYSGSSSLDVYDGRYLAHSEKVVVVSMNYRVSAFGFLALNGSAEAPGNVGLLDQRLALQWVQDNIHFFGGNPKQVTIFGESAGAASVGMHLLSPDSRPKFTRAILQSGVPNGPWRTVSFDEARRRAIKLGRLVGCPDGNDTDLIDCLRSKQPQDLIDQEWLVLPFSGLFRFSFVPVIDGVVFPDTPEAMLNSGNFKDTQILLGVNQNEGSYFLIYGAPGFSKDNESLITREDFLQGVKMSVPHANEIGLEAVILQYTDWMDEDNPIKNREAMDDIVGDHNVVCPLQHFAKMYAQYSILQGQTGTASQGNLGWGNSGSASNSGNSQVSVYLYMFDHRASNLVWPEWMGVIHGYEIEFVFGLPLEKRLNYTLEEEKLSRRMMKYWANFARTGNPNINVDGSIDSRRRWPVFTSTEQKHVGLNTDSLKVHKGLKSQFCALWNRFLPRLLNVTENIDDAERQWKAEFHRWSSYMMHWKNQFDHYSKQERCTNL
assay: biochemical
pIC50: −log10 of the molar value.
The label depends only on pIC50: t if it is at least 8, f if it is smaller.

- compound: "NNc1ccc(C(=O)NCCCCCCCCNc2c3c(nc4ccccc24)CCC3)cn1 [Compound 6g]"
  category: "t"
- compound: "NNc1ccc(C(=O)NCCCCNc2c3c(nc4ccccc24)CCC3)cn1 [Compound 6c]"
  category: "f"
- compound: "NNc1ccc(C(=O)NCCCCCCCNc2c3c(nc4ccccc24)CCC3)cn1 [Compound 6f]"
  category: "f"
- compound: "NNc1ccc(C(=O)NCCCCCCCCCNc2c3c(nc4ccccc24)CCC3)cn1 [Compound 6h]"
  category: "t"
- compound: "NNc1ccc(C(=O)NCCCNc2c3c(nc4ccccc24)CCC3)cn1 [Compound 6b]"
  category: "f"
- compound: "NNc1ccc(C(=O)NCCCCCCNc2c3c(nc4ccccc24)CCC3)cn1 [Compound 6e]"
  category: "f"
- compound: "Cl.NNc1ccc(C(=O)NCCNc2c3c(nc4ccccc24)CCC3)cn1 [Compound 6a]"
  category: "f"
